Sourced from ChEMBL document CHEMBL5724914

Study conditions: human gut metagenome, 24 h, 2 µM; note: call rule not given here
Property measured: Bacterial Biotransformation

Example entries begin here.
Compound	Bacterial Biotransformation
Cc1nc2n(c(=O)c1CCN1CCC(c3noc4cc(F)ccc34)CC1)CCCC2O (stereo not drawn) [PALIPERIDONE]	Compound metabolized
CNCCC(Oc1ccc(C(F)(F)F)cc1)c1ccccc1 (stereo not drawn) [FLUOXETINE]	Compound NOT metabolized
COC1=CC(=O)C[C@@H](C)[C@]12Oc1c(Cl)c(OC)cc(OC)c1C2=O [GRISEOFULVIN]	Compound metabolized
Cc1ccc(-c2cc(C(F)(F)F)nn2-c2ccc(S(N)(=O)=O)cc2)cc1 [CELECOXIB]	Compound metabolized
Cc1cc2c(cc1S(N)(=O)=O)S(=O)(=O)CCC2	Compound NOT metabolized
Cc1ccc(S(=O)(=O)NC(=O)NN2CC3CCCC3C2)cc1 (stereo not drawn) [GLICLAZIDE]	Compound metabolized

Would you mind giving Bacterial Biotransformation for every compound in the list below?
1. CC(C)c1c(C(=O)Nc2ccccc2)c(-c2ccccc2)c(-c2ccc(F)cc2)n1CC[C@@H](O)C[C@@H](O)CC(=O)O [ATORVASTATIN]
2. CC(C)(C#N)c1cc(Cn2cncn2)cc(C(C)(C)C#N)c1 [ANASTROZOLE]
3. CN1C(C(=O)Nc2ccccn2)=C(O)c2sccc2S1(=O)=O [TENOXICAM]
4. COc1ccc2c3c1O[C@H]1C[C@@H](O)C=C[C@@]31CCN(C)C2 [GALANTAMINE]
5. CCCCC(=O)N(Cc1ccc(-c2ccccc2-c2nnn[nH]2)cc1)[C@H](C(=O)O)C(C)C
6. Cc1ccc(S(=O)(=O)NC(=O)NN2CCCCCC2)cc1 [TOLAZAMIDE]
7. CCN(CC)CCNC(C(=O)OCCC(C)C)c1ccccc1.Cl.Cl (stereo not drawn)
8. COc1cc2c(c(OC)c1OC)-c1ccc(OC)c(=O)cc1[C@@H](NC(C)=O)CC2 [COLCHICINE]

1. Compound NOT metabolized
2. Compound NOT metabolized
3. Compound NOT metabolized
4. Compound NOT metabolized
5. Compound metabolized
6. Compound metabolized
7. Compound metabolized
8. Compound metabolized

====

Study conditions: human gut metagenome, 24 h, 2 µM
Property measured: Bacterial Biotransformation

Illustrative cases are given below, each with its answer.
Compound	Reported result
CCC(COC(=O)c1cc(OC)c(OC)c(OC)c1)(c1ccccc1)N(C)C.O=C(O)/C=C\C(=O)O (centres undefined)	Compound metabolized
CC(C)NCC(O)COc1ccc(COCCOC(C)C)cc1.CC(C)NCC(O)COc1ccc(COCCOC(C)C)cc1.O=C(O)/C=C/C(=O)O (centres undefined) [BISOPROLOL FUMARATE]	Compound metabolized
N#Cc1ccc(C(c2ccc(C#N)cc2)n2cncn2)cc1	Compound NOT metabolized
Cc1ccc(-c2cc(C(F)(F)F)nn2-c2ccc(S(N)(=O)=O)cc2)cc1	Compound NOT metabolized
CC(=O)CC(c1ccccc1)c1c(O)c2ccccc2oc1=O (centres undefined)	Compound metabolized

Items follow; give Bacterial Biotransformation for each.
1. CC(C)c1c(C(=O)Nc2ccccc2)c(-c2ccccc2)c(-c2ccc(F)cc2)n1CC[C@@H](O)C[C@@H](O)CC(=O)O
2. COc1ccc2[nH]c([S+]([O-])Cc3ncc(C)c(OC)c3C)nc2c1 (centres undefined)
3. COc1ccccc1OCC(O)COC(N)=O (centres undefined)
4. COc1cc2c(c(OC)c1OC)-c1ccc(OC)c(=O)cc1[C@@H](NC(C)=O)CC2
5. COc1ccc2c3c1O[C@H]1C[C@@H](O)C=C[C@@]31CCN(C)C2

1. Compound metabolized
2. Compound metabolized
3. Compound NOT metabolized
4. Compound metabolized
5. Compound metabolized
